Biological target: T1, human VEGF165 (human, UniProt P15692)
T1 chain: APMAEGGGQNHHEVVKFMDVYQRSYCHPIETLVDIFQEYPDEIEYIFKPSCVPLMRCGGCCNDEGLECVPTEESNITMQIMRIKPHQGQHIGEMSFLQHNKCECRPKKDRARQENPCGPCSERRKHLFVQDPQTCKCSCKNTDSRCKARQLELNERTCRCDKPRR
Experiment: SPR, pH 7.4
Below: a set of entries, each annotated with reported pKd.
Here pKd is given on a logarithmic scale as minus log10 of the concentration in mol/L.

• 534-max (antibody, V domains shown) VH: EVQLVESGGGLVQPGGSLRLSCTASGFSLSYYYMSWVRQAPGKGLEWVGIIGPGDYTDYASWAKGRFTISKDTSKNTVYLQMNSLRAEDTAVYYCARGDDNSGWGEDIWGQGTLVTVSS VL: EIVMTQSPSTLSASVGDRVIITCQASQSINIWLSWYQQKPGKAPKLLIYKESTLASGVPSRFSGSGSGTEFTLTISSLQPDDFATYYCQNNYDSGNNGFPFGQGTKLTVLG = 8.61

Prompt: Any idea what pKd was measured for 435-max (antibody, V domains shown) VH: EVQLVESGGGLVQPGGSLRLSCKVSGFSLNTNYWMCWVRQAPGKGLEWVGCMYTGSYNRAYYASWAKGRFTSSKDTSKNTVYLQMNSLRAEDTAVYYCAKGSNWYSDLWGQGTLVTVSS VL: EIVMTQSPSTLSASVGDRVIIKCQASQSIGSSLAWYQQKPGKAPKLLIYTAANLASGVPSRFSGSGSGAEFTLTISSLQPDDFATYYCQNFATSDTVTFGQGTKLTVLG ?
Response: 10.04
